Molecular target: T1, GLP-1R (INS1e assay) (UniProt P32301 22-463, limits assumed)
T1 sequence (looked up): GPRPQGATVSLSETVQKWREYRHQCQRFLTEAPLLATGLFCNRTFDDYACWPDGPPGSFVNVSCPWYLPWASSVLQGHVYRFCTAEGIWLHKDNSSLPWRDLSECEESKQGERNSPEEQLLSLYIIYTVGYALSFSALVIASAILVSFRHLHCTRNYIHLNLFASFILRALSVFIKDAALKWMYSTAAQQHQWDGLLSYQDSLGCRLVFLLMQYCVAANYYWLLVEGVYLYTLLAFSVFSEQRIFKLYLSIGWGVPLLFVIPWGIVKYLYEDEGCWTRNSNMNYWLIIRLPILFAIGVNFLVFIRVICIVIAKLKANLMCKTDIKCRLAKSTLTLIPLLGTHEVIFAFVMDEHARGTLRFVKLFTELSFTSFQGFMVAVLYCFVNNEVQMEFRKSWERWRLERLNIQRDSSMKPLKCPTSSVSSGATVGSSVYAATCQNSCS
Test: cell-based or functional assay
Starred links: 1 amine or outer side, 2 acyl side, 3 side chain; linkers in the order of their positions; H or OH if unused. Non-standard residues stand in square brackets, D forms with d. Groups on a side chain read outwards from the residue. Primed or numbered codes have the meaning given here. No end group written: not given here. *: point of attachment. γGlu = O=C(O)[C@H](CCC(=O)[*:2])N[*:1]; Stearoyl = CCCCCCCCCCCCCCCCCC(=O)*; αMeF = C[C@](N)(Cc1ccccc1)C(=O)O; αMeK = C[C@](N)(CCCCN)C(=O)O; αMeS = C[C@](N)(CO)C(=O)O; PEG2′ = not defined here; Aib = CC(C)(N)C(=O)O
MEASURED_QUANTITY: INS1e assay EC50 GLP-1 R n1 (nM)
The figure you give is taken to be in nM; do not add the unit.

>>> df
                                     binder  units     val
0  H[Aib]EGS[αMeF]TSDV[αMeS]S[αMeF]LEGEAA[αMeK]E[αMeF]IA[αMeF]VVK([PEG2′-PEG2′-PEG2′-Stearoyl])GG-NH2 [SEQ ID NO 190]     nM  0.0397

Asked: Fill in: INS1e assay EC50 GLP-1 R n1 of H[Aib]EGS[αMeF]TSDV[αMeS]S[αMeF]LEGEAA[Aib]EFIK([PEG2′-PEG2′-γGlu-Stearoyl])WVVEGG-NH2 [SEQ ID NO 67] is ___
Given back: 6.15

These measurements were taken from patent US20200079833A1.
